target: T1, human FolR2 ECD-AcTev-Fcknob-Avi tag + Fc hole, biotinylated monomeric Fc fusion (human, UniProt P0DOX5 223-449 = IgG part); assay: SPR ProteOn, Fab analyte;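 further: recombinant antigens immobilized, purified Fab two-fold dilutions injected in parallel channels, 200 s association and 600 s dissociation, buffer-only channel as in-line reference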
T1 construct: also called huFolR2; FolR2-Fc
reported metric: binding result

binder="15H7 Fab (Fab, V domains shown) VH: QVQLVQSGAEVKKPGASVKVSCKASGYTFTSYYMHWVRQAPGQGLEWMGIINPSGGSTSYAQKFQGRVTMTRDTSTSTVYMELSSLRSEDTAVYYCARNYYLFSTSFDYWGQGTLVTVSS VL: QAVVTQEPSLTVSPGGTVTLTCGSSTGAVTTSNYANWVQEKPGQAFRGLIGGTNKRAPGTPARFSGSLLGGKAALTLSGAQPEDEAEYYCALWYSNLWVFGGGTKLTVL" reported_result="no binding"
binder="15B6 Fab (Fab, V domains shown) VH: QVQLVQSGAEVKKPGASVKVSCKASGYTFTSYYMHWVRQAPGQGLEWMGIINPSGGSTSYAQKFQGRVTMTRDTSTSTVYMELSSLRSEDTAVYYCARNYYIGIVPFDYWGQGTLVTVSS VL: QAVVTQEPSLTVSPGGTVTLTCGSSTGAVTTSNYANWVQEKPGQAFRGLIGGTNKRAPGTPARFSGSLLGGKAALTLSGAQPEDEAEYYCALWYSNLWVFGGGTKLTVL" reported_result="no binding"
binder="18D3 Fab (Fab, V domains shown) VH: QVQLVQSGAEVKKPGASVKVSCKASGYTFTSYYMHWVRQAPGQGLEWMGIINPSGGSTSYAQKFQGRVTMTRDTSTSTVYMELSSLRSEDTAVYYCARNYYTGGSSAFDYWGQGTLVTVS VL: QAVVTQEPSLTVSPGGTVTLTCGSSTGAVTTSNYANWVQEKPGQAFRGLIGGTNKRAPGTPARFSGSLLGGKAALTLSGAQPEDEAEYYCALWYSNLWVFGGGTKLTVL" reported_result="no binding"

Source of measurements: patent US20210087291A1
